Value source: BindingDB's records for doi:10.1016/S0960-894X(01)80876-3

Hi there, I'd appreciate the recorded pIC50 for every entry that follows.
Test: Ability to inhibit blood platelet aggregation of human platelet-rich plasma induced by TP-receptor agonist U 46619
Remember, pIC50 is on a log scale: it is -log10 of the molar concentration.

pIC50 in this record for O=C(O)CC/C=C1\CC2CC(O)C([CH+][N-]NC(=O)Nc3ccc([N+](=O)[O-])cc3)C2C1 (stereo not drawn) : 6.28

// "O=C(O)CCC/C=C1/C[C@H]2C[C@@H](O)[C@H](C=NNC(=O)Nc3ccccc3)[C@H]2C1" : pIC50 value = 7.00

So for "O=C(O)CCC/C=C1\C[C@H]2CC[C@H](C=NNC(=O)Nc3ccccc3)[C@H]2C1" , the logged pIC50 turned out to be 4.92

So for O=C(O)CCC/C=C1/CC2CC(O)C([CH+][N-]NC(=O)Nc3ccc([N+](=O)[O-])cc3)C2C1 (stereo not drawn) , the logged pIC50 turned out to be 7.30

Entry "O=C(O)CCC/C=C1\C[C@H]2C[C@@H](O)[C@H](C=NNC(=O)Nc3cccc(Cl)c3)[C@H]2C1" — recorded pIC50 = 6.89

Record summary for "O=C(O)CCC/C=C1\C[C@H]2CC[C@H](C=NNC(=O)Nc3ccc(Cl)c(Cl)c3)[C@H]2C1" : reported pIC50 = 5.05

Documented pIC50 of "O=C(O)CC/C=C1\C[C@H]2C[C@@H](O)[C@H](C=NNC(=O)Nc3cccc(Cl)c3)[C@H]2C1" : 5.28

For this compound ( "O=C(O)COC/C=C1\C[C@H]2C[C@@H](O)[C@H](C=NNC(=O)Nc3ccccc3)[C@H]2C1" ), measured pIC50 is 5.22
